Test system: CAL-85-1
assaySummary: normalised viability (% of control), CellTiter-Blue; higher = more viable cells (about 100 = DMSO control)
runParameters: 3 nM; incubation time: 72 h
endpointName: normalised viability (%)
Form entry: value (%) — number only.

Example results:
Cn1c(CCCC(=O)O)nc2cc(N(CCCl)CCCl)ccc21 [Bendamustine]: 91.2
C=C(c1ccc(C(=O)O)cc1)c1cc2c(cc1C)C(C)(C)CCC2(C)C [Bexarotene]: 94.9

Request: Which normalised viability reading was recorded for the compound Cc1ccc(-n2nc(C(C)(C)C)cc2NC(=O)Nc2ccc(OCCN3CCOCC3)c3ccccc23)cc1 [Doramapimod] ?
Result: 94.4

Request: Entry COc1cc2nccc(Oc3ccc(NC(=O)C4(C(=O)Nc5ccc(F)cc5)CC4)cc3)c2cc1OC [Cabozantinib] please
Result: 87.5
